experimental-protocol: NCI Yeast Anticancer Drug Screen. Data for the mec2-1 strain (AID 157)
conditions-used: S. cerevisiae mec2-1 strain, at 50.0 µM, hits give high values
About 79,000 compounds went through this panel and 15% of them were active in at least one assay; those are over-represented in the sample as a whole.
Please provide measured growth inhibition for the entries that follow.
The figure you give is taken to be in %; do not add the unit.

Input line: Supply reported growth inhibition belonging to this compound: CCC(C#N)(CC)c1ccccc1
Output line: 13.4

Input line: Supply reported growth inhibition belonging to this compound: CCNc1nc2c(cnn2C)c(=O)[nH]1
Output line: 28.4

Input line: Supply reported growth inhibition belonging to this compound: CCCCC1C(=O)N(c2ccccc2)N(c2ccccc2)C1=O
Output line: -10.6

Input line: Supply reported growth inhibition belonging to this compound: CC1(C)N=C(N)N=C(N)N1c1ccc(Cl)cc1
Output line: 3.35

Input line: Supply reported growth inhibition belonging to this compound: Cc1cc(N2CCC(N3CCCC3)CC2)nc(/N=C(\N)Nc2ccc(Cl)c(Cl)c2)n1
Output line: -2.25

Input line: Supply reported growth inhibition belonging to this compound: N#CCCc1ccc(O)cc1
Output line: -44.2

Input line: Supply reported growth inhibition belonging to this compound: CCCC(=O)c1cc(C)ccc1OC
Output line: 0.15

Input line: Supply reported growth inhibition belonging to this compound: CC1C(=O)c2ccccc2CC1C(=O)O (stereo not given)
Output line: -15.6

Input line: Supply reported growth inhibition belonging to this compound: COc1cc2c3c(n(C)c(=O)c2cc1OC)-c1cc2c(cc1C3=O)OCO2
Output line: -15.2

Input line: Supply reported growth inhibition belonging to this compound: Cc1cc(C)cc(NCCC#N)c1
Output line: -32.5

Input line: Supply reported growth inhibition belonging to this compound: C#CC(C(C)C)N(CCO)CCCC (stereo not given)
Output line: 4.55

Input line: Supply reported growth inhibition belonging to this compound: COc1cc2nn(-c3ccccc3N)nc2cc1OC
Output line: 36.6

Input line: Supply reported growth inhibition belonging to this compound: CCOC(=O)c1cc2cccc(OC)c2oc1=O
Output line: 3.45

Input line: Supply reported growth inhibition belonging to this compound: CCC(=O)Oc1ccc(OC)cc1
Output line: -13.4

Input line: Supply reported growth inhibition belonging to this compound: O=C1C=C(O)C(=O)C=C1O
Output line: -10.2

Input line: Supply reported growth inhibition belonging to this compound: CC(O)COc1ccc(-c2ccccc2)cc1 (stereo not given)
Output line: -2.9

Input line: Supply reported growth inhibition belonging to this compound: CCOC(=O)c1cc(/C=C/c2cccc(Cl)c2)on1
Output line: 27.6

Input line: Supply reported growth inhibition belonging to this compound: O=[N+]([O-])c1ccc(-c2ncc(-c3ccc(Br)cc3)o2)cc1
Output line: -3.3

Input line: Supply reported growth inhibition belonging to this compound: CCn1c(=O)n(C)c2c(=O)n(C)c(=O)n(C)c21
Output line: -3.8

Input line: Supply reported growth inhibition belonging to this compound: COc1cc2c(cc1O)CC[C@@H]1C2CC[C@@]2(C)C1CC[C@@H]2O (stereo not given in full)
Output line: -13.4

Input line: Supply reported growth inhibition belonging to this compound: OC1OC(COC(c2ccccc2)(c2ccccc2)c2ccccc2)C(O)C(O)C1O (stereo not given)
Output line: -0.95

Input line: Supply reported growth inhibition belonging to this compound: CN(C)CCC(=O)c1ccc(O)cc1
Output line: 8.65

Input line: Supply reported growth inhibition belonging to this compound: CCOC(=O)C/C(C)=N\O
Output line: -11.3

Input line: Supply reported growth inhibition belonging to this compound: Clc1ccc(-c2n[nH]c3c2Cc2ccccc2-3)cc1Cl
Output line: -10.8

Input line: Supply reported growth inhibition belonging to this compound: O=c1[nH][nH]c(=O)c2cc([N+](=O)[O-])ccc12
Output line: 11.6

Input line: Supply reported growth inhibition belonging to this compound: COc1cccc(/C=N/NC(=S)NC2CC3CCC2C3)c1O (stereo not given)
Output line: -33.1

Input line: Supply reported growth inhibition belonging to this compound: Cc1cccc(C(=O)N(C(C)C)C(C)C)c1
Output line: -4.95

Input line: Supply reported growth inhibition belonging to this compound: CN(C)c1ccc(CNC(C(=O)c2ccccc2)c2ccccc2)cc1 (stereo not given)
Output line: -5.35

Input line: Supply reported growth inhibition belonging to this compound: CCOC(=O)c1cc(/C=C/c2ccc(Cl)cc2Cl)on1
Output line: -52.7

Input line: Supply reported growth inhibition belonging to this compound: Cc1ccc(S(=O)(=O)O)c(C)c1
Output line: -4.35

Input line: Supply reported growth inhibition belonging to this compound: NC(=S)N/N=C/c1ccc(N)cc1
Output line: -2.35

Input line: Supply reported growth inhibition belonging to this compound: CC1OC(Oc2c(-c3ccc(O)c(O)c3)oc3cc(O)cc(O)c3c2=O)C(O)C(O)C1O (stereo not given)
Output line: -8.25

Input line: Supply reported growth inhibition belonging to this compound: C/C(=N\O)C1(O)CCCCC1
Output line: 3.55

Input line: Supply reported growth inhibition belonging to this compound: S=c1nn[nH]c2ccccc12
Output line: 22.6

Input line: Supply reported growth inhibition belonging to this compound: CNc1nc(NC)c2cn[nH]c2n1
Output line: 2.3

Input line: Supply reported growth inhibition belonging to this compound: CN(C)C(C)(C)CC(C)(C)C
Output line: 4

Input line: Supply reported growth inhibition belonging to this compound: O=C1C=CC(=O)N1c1ccc(I)cc1Cl
Output line: 18.3

Input line: Supply reported growth inhibition belonging to this compound: O=c1cc(-c2ccccc2)[nH]c2c1CCCC2
Output line: -21.4

Input line: Supply reported growth inhibition belonging to this compound: O=S(=O)(O)C(Nc1ccccc1)c1ccccc1 (stereo not given)
Output line: -27.7

Input line: Supply reported growth inhibition belonging to this compound: COc1cc2c(cc1OC)[C@H](C(=O)O)[C@@H](c1ccc(OC(C)C)c(OC)c1)N(C)C2=O
Output line: -10

Input line: Supply reported growth inhibition belonging to this compound: C#Cc1cccc(NC(=O)c2ccc(Cl)cc2Cl)c1
Output line: -9.7

Input line: Supply reported growth inhibition belonging to this compound: CC(=O)c1ccc(C)c(N)c1
Output line: 0.15

Input line: Supply reported growth inhibition belonging to this compound: c1cc2cccc3c4cccc5cccc(c(c1)c23)c54
Output line: -22.6

Input line: Supply reported growth inhibition belonging to this compound: Cc1cc(C(O)(c2ccc(Nc3ccccc3)cc2)c2ccc(Nc3ccc(S(=O)(=O)O)cc3)cc2)ccc1N (stereo not given)
Output line: -46

Input line: Supply reported growth inhibition belonging to this compound: O=C(NC1CCCCC1)OCc1c(COC(=O)NC2CCCCC2)c(-c2ccc(Cl)c(Cl)c2)n2c1CCC2
Output line: 7.1

Input line: Supply reported growth inhibition belonging to this compound: CCN(CC)CCCC(C)Nc1ccnc(/C=C/c2ccc(Cl)cc2)c1 (stereo not given)
Output line: -1.2

Input line: Supply reported growth inhibition belonging to this compound: COC(=O)c1ccccc1Br
Output line: 7.8

Input line: Supply reported growth inhibition belonging to this compound: CN(C)C(=O)Oc1cccc([N+](C)(C)C)c1
Output line: -8.2

Input line: Supply reported growth inhibition belonging to this compound: CSc1[nH]c(=O)ncc1F
Output line: 4.1

Input line: Supply reported growth inhibition belonging to this compound: Cc1ccc(C)n1-c1ccsc1C(=O)NNC(=O)CCl
Output line: -17.8

Source of measurements: PubChem BioAssay (NCI)
